- ASSAY: Inhibition of VGLUT (unknown origin)
- Set-up: species or system Homo sapiens
molecules and their reported Ki
// return numeric value only (unit: µM, not printed)

Cc1cc(-c2ccc(/N=N/c3c(S(=O)(=O)O)cc4cc(S(=O)(=O)O)cc(N)c4c3O)c(C)c2)ccc1/N=N/c1c(S(=O)(=O)O)cc2cc(S(=O)(=O)O)cc(N)c2c1O [TRYPAN BLUE] :: 0.05

Let us move to another entry and its Ki.
Query string: Specify Ki for "N[C@@]1(C(=O)O)CC[C@@H](C(=O)O)C1" and stop.
Result string: 700

* * *

- ASSAY: Competitive inhibition of VGLUT-mediated [3H]-L-Glu uptake into synaptic vesicles in rat brain by Lineweaver-Burk plot analysis
- Assay type: tissue-based
RESULT TYPE: pKi
When answering, recall that pKi equals minus log10 of the concentration in mol/L, and write that number alone.

Query string: Please report pKi for the following molecule: "CC(=O)[C@H]1CC[C@H]2[C@@H]3CC[C@@H]4C[C@@H](OS(=O)(=O)O)CC[C@]4(C)[C@H]3CC[C@]12C"
Result string: 4.66
